# Tgt: Recombinant human glyoxalase I (Homo sapiens, UniProt Q04760)
# Sequence (Q04760 2-184 limits assumed): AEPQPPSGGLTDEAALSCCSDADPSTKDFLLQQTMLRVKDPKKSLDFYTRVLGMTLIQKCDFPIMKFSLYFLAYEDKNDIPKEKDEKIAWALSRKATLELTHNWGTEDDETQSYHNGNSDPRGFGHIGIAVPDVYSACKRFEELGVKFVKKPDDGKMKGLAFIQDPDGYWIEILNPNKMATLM
# Assay: Glyoxalase I inhibition assay (96-well kinetic spectrophotometric assay, 240 nm)
# Condition parameters: concentration giving 50% of the vehicle control response
Quantity kind: IC50 (µM)
Hi! Could you send only the number? It should be in µM, unit omitted.

Query string: Report IC50 for O=C(O)C(Sc1ccc(CN(O)C(=O)c2ccccc2)cc1)c1ccccc1 (centres unmarked) please.
Result string: 9.7
